- System: LOX IMVI melanoma
- methodNotes: NCI-60 one-dose screen, 48 h (100 = growth as untreated, 0 = no growth, -100 = all killed)
- settings: 10 µM
The panel holds about 83,000 compounds, 20% with a hit somewhere; the sample as a whole holds those more often.
The label depends only on growth: Fulfilled if it is at least 80%, Not fulfilled if it is smaller.

Solved entries (count: 4):
Qu. Say whether Cc1ccc(C(=O)Nc2cccc(F)c2)cc1NC(=O)C1(c2ncnc3[nH]ccc23)CC1 shows growth of 80% or more.
Ans. Not fulfilled

Qu. Say whether COc1cc2cc3c(nc2cc1OC)CCN3Cc1ccc(NC(=O)Nc2ccc(F)cc2F)cc1 shows growth of 80% or more.
Ans. Fulfilled

Qu. Say whether O=[N+]([O-])c1cccc(N=Cc2ccc3c(c2)OCO3)c1 shows growth of 80% or more.
Ans. Fulfilled

Qu. Say whether COc1ccc(-c2nc(-c3nc4cc(Cl)c(Cl)cc4[nH]3)c3ccccn23)cc1 shows growth of 80% or more.
Ans. Not fulfilled

Next:
Qu. Say whether COc1cc(NC(=O)c2sc3nc4c(cc3c2N)C(O)CCC4)cc(OC)c1 (configuration not stated) shows growth of 80% or more.
Ans. Fulfilled

Qu. Say whether N=C(N)c1ccc(-c2ccc(-c3cccs3)s2)cc1 shows growth of 80% or more.
Ans. Not fulfilled

Qu. Say whether Cn1c(N)c(N=Nc2ccc(S(=O)(=O)Nc3nccs3)cc2)c(=O)n(C)c1=O shows growth of 80% or more.
Ans. Fulfilled
